Molecular target: T1, Toscana virus nucleoprotein N (Toscana virus, UniProt P21701 1-253)
T1 sequence: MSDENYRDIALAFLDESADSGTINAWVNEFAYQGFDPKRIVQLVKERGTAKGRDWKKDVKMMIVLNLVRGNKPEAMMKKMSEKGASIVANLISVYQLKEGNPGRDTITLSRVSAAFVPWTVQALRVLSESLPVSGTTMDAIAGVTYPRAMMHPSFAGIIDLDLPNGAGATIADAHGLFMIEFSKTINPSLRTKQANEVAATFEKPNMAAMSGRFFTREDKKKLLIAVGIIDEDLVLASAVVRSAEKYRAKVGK
Assay: ITC; n=0.43; ITC: 20 mM Tris pH 7.5, 150 mM NaCl, 8 C; 400 uM RNA titrated into 30 uM apo N
Details: protein: recombinant; tags: N-terminal His6; chain copies: 6; single strand
value-type: Kd (nM)

binder="UCUUUGUGU (ssRNA) [oligo2 (3' genomic consensus)]" quantitative_readout=560
